This collection of values is drawn from patent US20070161634A1.

Molecular target: CCR5 receptor (Homo sapiens)
Assay: [35S]GTPγS binding assay
Type: biochemical
Conditions: b360; read-out: IC50
RECORDED ENDPOINT: pIC50
# pIC50 is unitless: minus log10 of the molar concentration; print number only

Give recorded pIC50. CCN(C(=O)OCc1ccccc1)C1CCN(CC2CN(Cc3ccccc3)CC2(O)c2ccccc2)CC1 (stereo not shown) [mesylate of II-a-a]
6.47

---

Biological target: CCR5 receptor (Homo sapiens)
Assay: [35S]GTPγS binding assay
Assay type: biochemical
Conditions: [35S]GTPγS binding initiated by 10 nM RANTES; read-out: IC50(nM) ± S.E.
RECORDED ENDPOINT: IC50 (nM)
The reply should be a number in nM, with the unit left off.

Give recorded IC50. CCN(C(=O)OCc1ccccc1)C1CCN(CC2CN(Cc3ccccc3)CC2(O)c2ccccc2)CC1 (stereo not shown)
401

Give recorded IC50. OC1(CCCc2ccccc2)CCN(CC2CN(Cc3ccccc3)CC2(O)c2ccccc2)CC1 (stereo not shown)
368

Give recorded IC50. C=CCN(C(=O)OCc1ccc(Br)cc1)C1CCN(CC2CN(C(=O)C3CCCC3)CC2(O)c2ccccc2)CC1 (stereo not shown)
8.87

Give recorded IC50. C=CCN(C(=O)OCc1ccc([N+](=O)[O-])cc1)C1CCN(CC2CN(C(=O)C3CCCCC3)CC2(O)c2ccccc2)CC1 (stereo not shown)
7.3

Give recorded IC50. C=CCN(C(=O)Nc1ccccc1)C1CCN(CC2CN(C(=O)C3CCCC3)CC2(O)c2ccccc2)CC1 (stereo not shown)
6.46

Give recorded IC50. C=CCN(C(=O)OCc1ccc([N+](=O)[O-])cc1)C1CCN(CC2CN(C(=O)c3ccccc3)CC2(O)c2ccccc2)CC1 (stereo not shown)
9.7

---

Molecular target: CCR5 receptor (Homo sapiens, UniProt P51681)
Sequence (P51681 whole entry): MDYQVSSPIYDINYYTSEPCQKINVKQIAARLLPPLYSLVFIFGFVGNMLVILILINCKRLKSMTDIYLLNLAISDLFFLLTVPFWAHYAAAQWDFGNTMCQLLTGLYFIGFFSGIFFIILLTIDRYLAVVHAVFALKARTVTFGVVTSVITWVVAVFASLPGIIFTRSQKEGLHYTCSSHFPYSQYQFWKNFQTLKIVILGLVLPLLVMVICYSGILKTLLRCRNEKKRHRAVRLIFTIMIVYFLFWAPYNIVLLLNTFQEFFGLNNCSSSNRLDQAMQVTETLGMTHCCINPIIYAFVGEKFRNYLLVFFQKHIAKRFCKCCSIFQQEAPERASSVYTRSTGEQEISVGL
Experiment: [35S]GTPγS binding assay
Assay type: biochemical
Conditions: Table I; [35S]GTPγS binding; read-out: IC50
Overview of reported pIC50 across a group of compounds:
# pIC50 is unitless: minus log10 of the molar concentration; print number only

Some solved cases for reference:
COMPOUND	TARGET	pIC50
C=CCN(C(=O)OCc1ccc([N+](=O)[O-])cc1)C1CCN(CC2CN(C(=O)c3ccccc3I)CC2(O)c2ccccc2)CC1 (stereo not shown)	CCR5 receptor (Homo sapiens, UniProt P51681)	7.60
C=CCN(C(=O)OCc1ccc([N+](=O)[O-])cc1)C1CCN(CC2CN(C(=O)c3cccc4ccccc34)CC2(O)c2ccccc2)CC1 (stereo not shown)	CCR5 receptor (Homo sapiens, UniProt P51681)	7.57
O=C(C1CCCC1)N1CC(CN2CCC(c3ccccc3)CC2)C(O)(c2ccccc2)C1 (stereo not shown)	CCR5 receptor (Homo sapiens, UniProt P51681)	5.72
C=CCN(C(=O)Nc1ccccc1)C1CCN(CC2CN(C(=O)C3CCCC3)CC2(O)c2ccccc2)CC1 (stereo not shown)	CCR5 receptor (Homo sapiens, UniProt P51681)	8.19

Answer briefly: pIC50 recorded on CCR5 receptor (Homo sapiens, UniProt P51681) for CCN(C(=O)OCc1ccccc1)C1CCN(CC2CN(Cc3ccccc3)CC2(O)c2ccc(F)cc2)CC1 (stereo not shown)
6.25

---

Molecular target: CCR5 receptor (Homo sapiens)
Assay: [35S]GTPγS binding assay
Format: biochemical
Conditions: Table I; class symbols, inhibition at 10,000 nM; read-out: IC50
Method: [^35S]GTPγS binding assay CCR5 receptor binds to agonists and changes its conformation which enables it to interact with and activate G protein, a heterotrimer which consists of subunits α and βγ. The capability of G protein α subunit binding to GTP depends on the effect between CCR5 and the agonists, therefore, the amount of α subunit bound GTP should reflect the agonists activity on the CCR5 receptor. […] CCR5 activation of G-protein was measured according to assays below: […]
RECORDED ENDPOINT: IC50

MOLECULE	RESULT
O=S(=O)(c1ccccc1)N1CC(CN2CCC(c3ccccc3)CC2)C(O)(c2ccccc2)C1 (stereo not shown)	> 10 µM
C[C@H]1[C@@H](CN2CCC(c3ccccc3)CC2)C(O)(c2ccccc2)CN1Cc1ccccc1 (stereo partly shown)	> 10 µM
CCN(C(=O)OCc1ccccc1)C1CCN(CC2CN(Cc3ccccc3)CC2(C)O)CC1 (stereo not shown)	> 10 µM

Could you now look at the following molecule, please?
Give recorded IC50. OC1(c2ccc(F)cc2)CN(Cc2ccccc2)CC1CN1CCC(c2ccccc2)CC1 (stereo not shown)
> 10 µM

---

Target: CCR5 receptor (Homo sapiens, UniProt P51681)
Assay: [35S]GTPγS binding assay
Assay type: biochemical
Details: Table I; [35S]GTPγS binding; read-out: IC50
pIC50: −log10 of the molar value.
pIC50 of 6 or higher: 1. Under 6: 0.

Reference set (5 entries):
COMPOUND	GROUP LABEL
OC1(CCCc2ccccc2)CCN(CC2CN(Cc3ccccc3)CC2(O)c2ccccc2)CC1 (stereo not shown)	1
C=CCN(C(=O)OCc1ccc(Br)cc1)C1CCN(CC2CN(C(=O)C3CCCC3)CC2(O)c2ccccc2)CC1 (stereo not shown)	1
O=C(c1ccccc1)N1CC(CN2CCC(c3ccccc3)CC2)C(O)(c2ccccc2)C1 (stereo not shown)	0
C=CCN(C(=O)OCc1ccc([N+](=O)[O-])cc1)C1CCN(CC2CN(C(=O)C3CCCC3)CC2(O)c2ccccc2)CC1 (stereo not shown)	1
OC1(c2ccccc2)CN(Cc2ccccc2)CC1CN1CCC(CCCc2ccccc2)CC1 (stereo not shown)	1

In plain terms: is recorded pIC50 at least 6 for C=CCN(C(=O)OCc1ccccc1)C1CCN(CC2CN(C(=O)C3CCCC3)CC2(O)c2ccccc2)CC1 (stereo not shown) ?
1

In plain terms: is recorded pIC50 at least 6 for OC1(CCCc2ccccc2)CCN(CC2CN(Cc3ccccc3)CC2(O)c2ccc(F)cc2)CC1 (stereo not shown) ?
0

In plain terms: is recorded pIC50 at least 6 for C=CCN(C(=O)OCc1ccc([N+](=O)[O-])cc1)C1CCN(CC2CN(C(=O)C3CCCCC3)CC2(O)c2ccccc2)CC1 (stereo not shown) ?
1

---

Overview of reported IC50 across a group of compounds:
Biological target: CCR5 receptor (Homo sapiens)
Assay: [35S]GTPγS binding assay
Type: biochemical
Details: [35S]GTPγS binding initiated by 10 nM RANTES; read-out: IC50(nM) ± S.E.
The reply should be a number in nM, with the unit left off.

COMPOUND	TARGET	UNIT OF MEASUREMENT	IC50
C=CCN(C(=O)OCc1ccc([N+](=O)[O-])cc1)C1CCN(CC2CN(C(=O)c3cccc4ccccc34)CC2(O)c2ccccc2)CC1 (stereo not shown) [III-a-d]	CCR5 receptor (Homo sapiens)	nM	26.8
OC1(CCCc2ccccc2)CCN(CC2CN(Cc3ccccc3)CC2(O)c2ccc(F)cc2)CC1 (stereo not shown) [I-b-k]	CCR5 receptor (Homo sapiens)	nM	2510

Could you now look at the following compound, please?
Give recorded IC50. C=CCN(C(=O)OCc1ccc(OC)cc1)C1CCN(CC2CN(C(=O)C3CCCC3)CC2(O)c2ccccc2)CC1 (stereo not shown) [III-a-i]
4.33

---

Biological target: CCR5 receptor (Homo sapiens)
Test: [35S]GTPγS binding assay
Type: biochemical
Details: [35S]GTPγS binding initiated by 10 nM RANTES; read-out: IC50(nM) ± S.E.
Labels assigned by IC50 range: bucket A (below 10 nM), bucket B (10 nM to below 1000 nM), bucket C (1000 nM or more)

COMPOUND	GROUP LABEL
OC1(c2ccccc2)CN(Cc2ccccc2)CC1CN1CCC(CCCc2ccccc2)CC1 (stereo not shown)	bucket B
C=CCN(C(=O)COc1ccccc1)C1CCN(CC2CN(C(=O)C3CCCC3)CC2(O)c2ccccc2)CC1 (stereo not shown)	bucket B

For CCN(C(=O)OCc1ccccc1)C1CCN(CC2CN(Cc3ccccc3)CC2(O)c2ccc(F)cc2)CC1 (stereo not shown) , which IC50 bin applies?
bucket B

For O=C(C1CCCC1)N1CC(CN2CCC(c3ccccc3)CC2)C(O)(c2ccccc2)C1 (stereo not shown) , which IC50 bin applies?
bucket C

For O=C(c1ccccc1I)N1CC(CN2CCC(c3ccccc3)CC2)C(O)(c2ccccc2)C1 (stereo not shown) , which IC50 bin applies?
bucket C

For C=CCN(C(=O)OCc1ccc([N+](=O)[O-])cc1)C1CCN(CC2CN(C(=O)C3CCCC3)CC2(O)c2ccccc2)CC1 (stereo not shown) , which IC50 bin applies?
bucket A

For O=C(c1ccccc1)N1CC(CN2CCC(c3ccccc3)CC2)C(O)(c2ccccc2)C1 (stereo not shown) , which IC50 bin applies?
bucket C

For C=CCN(C(=O)OCc1ccc([N+](=O)[O-])cc1)C1CCN(CC2CN(C(=O)c3ccccc3I)CC2(O)c2ccccc2)CC1 (stereo not shown) , which IC50 bin applies?
bucket B

For C=CCN(C(=O)OCc1ccccc1)C1CCN(CC2CN(C(=O)C3CCCC3)CC2(O)c2ccccc2)CC1 (stereo not shown) , which IC50 bin applies?
bucket A
